Here, each record is paired with measured growth inhibition data.
experiment: NCI Yeast Anticancer Drug Screen. Data for the cln2 rad14 strain (AID 165);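 also: 0% = growth equal to vehicle treated cultures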; settings: S. cerevisiae cln2 rad14 strain, at 50.0 µM, hits give high values
This is part of a sample that, as a whole, favours compounds with a hit. Of some 79,000 tested, about 15% had one in any assay. Active and inactive are the calls of the source. Rule as the data show it: active = growth inhibition above about 70%; inactive = the rest.

Lookup result for Cc1cccnc1NN=O ; measured growth inhibition: 10% (inactive)

Sure, the documented growth inhibition for OCCSCSCCO is 10.2% (inactive)

Record O=C(Nc1cccc(Cl)c1)Oc1ccc(S(=O)(=O)F)cc1Cl , field growth inhibition: 91.2% (active)

----------
Some compounds, each annotated with its measured growth inhibition.
experiment: NCI Yeast Anticancer Drug Screen. Data for the sgs1 mgt1 strain (AID 161);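 also: 0% = growth of cultures given vehicle only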; conditions: S. cerevisiae sgs1 mgt1 strain, at 50.0 µM, hits give high values
This is part of a sample that, as a whole, favours compounds with a hit. Of some 79,000 tested, about 15% had one in any assay.
Respond numerically; units are % and should not be typed.

* CN(CCC(=O)O)C1=Nc2ccc(Cl)cc2C(c2ccccc2)=[N+]([O-])C1 | -14.2
* Nc1ccc2c(c1)Oc1ccc(N)cc1O2 | 0.7
* CCOC(=O)C(O)(c1ccccc1)c1ccccc1 | 6.85
* CC(C)(C)C1=C(Br)C(Br)(C(C)(C)C)OP1(=O)c1ccccc1 (stereo unspecified) | -22.9
* CN(C)CC#CCN(C)C | -1
* CO[C@@]12[C@@H]3N[C@@H]3CN1C1=C(C(=O)C(NCCC#N)=C(C)C1=O)[C@@H]2COC(N)=O | -13.1

The reported growth inhibition of the compound O=P(OCCCl)(OCCCl)OCCCl was -19.2

The reported growth inhibition of the compound COC(=O)/C=C/c1ccc(Cl)cc1 was 0.5

// growth inhibition lookup, compound = CN(C)NP(=O)(c1ccccc1)c1ccccc1 , result: -4.45

NCCn1ccc2ccccc21 yielded growth inhibition of 5.35

Given item Cc1c(Cl)cc([N+](=O)[O-])c(O)c1[N+](=O)[O-] , the value recorded as its growth inhibition is 5

Per the records, this compound ( CCOP(=S)(OCC)OP(=S)(OCC)OCC ) has growth inhibition equal to -40.6

Entry O=c1[nH]c2ccc([As](O)O)cc2[nH]1 ; growth inhibition = -4.9

The value of growth inhibition measured for the compound CCOP(=O)(O)C1CCCC(C)[N-]1.CCOP(=O)(O)C1CCCC(C)[N-]1.CCOP(=O)(O)C1CCCC(C)[N-]1.[Ti+3] (stereo unspecified) turned out to be -6.55

Lab note: measured growth inhibition of CC1=CC2=C(C)C3(CC3)[C@@](C)(O)C(=O)C2=C1 was 55.8

Record C=CCOC(=O)Cc1ccccc1 . Reported growth inhibition: 4.9

----------
assay: NCI Yeast Anticancer Drug Screen. Data for the mlh1 rad18 strain (AID 175); conditions: S. cerevisiae mlh1 rad18 strain growth inhibition; at 50.0 µM
This is part of a sample that, as a whole, favours compounds with a hit. Of some 79,000 tested, about 15% had one in any assay. Calls of active or inactive are those of the source. Cut-off read from the data, not from the text of the source: active = growth inhibition above about 70%; inactive = the rest.
# valid calls are active, inactive; nothing else

- CN(N=O)C(=O)ON1C(=O)CCC1=O: inactive
- CC1(C)N=C(N)N=C(N)N1c1ccc(CCCCc2cc(Cl)ccc2S(=O)(=O)F)c(Cl)c1: active
- Nc1cccc(SC2CC(=O)N(c3ccc(Cl)cc3C(=O)c3ccccc3)C2=O)c1 (centres undefined): inactive

Hi, sorry to bother you, what did the test record for O=[N+]([O-])c1cc(S(=O)(=O)F)cc(Cl)c1O ?
inactive

Tell me the recorded outcome of this test for COc1ccc(CCN)c(OC)c1 .
inactive
